Source: PubChem BioAssay (NCI)

tested on: COLO 205 colon; assay: NCI tumour cell line growth inhibition, 48 h
endpointLabel: TGI

molecule=Cc1cc(Nc2ccc(S(=O)(=O)O)c3cc(S(=O)(=O)O)cc(S(=O)(=O)O)c23)c2ccccc2n1 readoutvalue="> 100 µM"
molecule=COc1ccc(CN2C(=O)/C(=C\c3cc(OC)c(OC)c(OC)c3)c3ccccc32)cc1 readoutvalue="3.44 µM"

Short answer for O=C(O)c1ccc2c(c1C(=O)O)C(=O)OC2(c1ccc(O)cc1)c1ccc(O)cc1 : TGI was > 100 µM

Short answer for COc1cccc(C(=O)NC(c2ccc(C)cc2)c2cc(Cl)c3cccnc3c2O)c1 (stereo not given) : TGI was 1.86 µM

Short answer for CCc1c(OC(C)=O)c2c(NC3OCC(OC(C)=O)C(OC(C)=O)C3OC(C)=O)nc(SC)nc2oc1=O (stereo not given) : TGI was > 100 µM

* * *

tested on: HS 578T breast; experiment: NCI tumour cell line growth inhibition, 48 h
endpointLabel: TGI (µM)
Could you give me the number in µM? Just the number is fine.

Worked examples, 6 molecules total:
molecule=Cc1cc(-c2nc3ccc(F)cc3s2)ccc1NC(=O)[C@H](C)N endpointlabel=TGI readoutvalue=28.5
molecule=Nc1nccc(-c2c[nH]c3cc(Br)ccc23)n1 endpointlabel=TGI readoutvalue=75.7
molecule="CC1(C)O[C@H]2OC(CO[Si](C)(C)C(C)(C)C)C(N=[N+]=[N-])[C@H]2O1 (stereo partly specified)" endpointlabel=TGI readoutvalue=51.5
molecule="CC1(C(=O)O)CCC2(C)CCC3(C)C(=CC(=O)C4C5(C)CCC(O)C(C)(C)C5CCC43C)C2C1 (stereo unspecified)" endpointlabel=TGI readoutvalue=65.7
molecule=COc1ccc(C(=C2C=CC=C2)c2ccc(OC)cc2)cc1 endpointlabel=TGI readoutvalue=94.4
molecule=CCCCCCCCCCn1cc[n+](C)c1 endpointlabel=TGI readoutvalue=14

Turning now to a further record.
Short answer for Nc1n[nH]c2cc(F)c([C@@H]3Nc4ccc5[nH]ncc5c4[C@H]4C5CCC(C5)[C@@H]34)cc12 (stereo partly specified) : TGI was 11.6

* * *

tested on: NCI-H23 lung; assay: NCI tumour cell line growth inhibition, 48 h
endpointLabel: TGI (µM)
Could you give me the number in µM? Just the number is fine.

Worked examples, 4 compounds total:
querysmiles=O=c1ccc2ccccc2cc1[O-].O=c1ccc2ccccc2cc1[O-].[O]=[U+2]=[O] targetortestsystem="NCI-H23 lung" endpointlabel=TGI unitlabel=µM readoutvalue=90.7
querysmiles=Cc1ccc(-n2c3nc(=O)[nH]c(=O)c-3cc3cc([N+](=O)[O-])ccc32)cc1 targetortestsystem="NCI-H23 lung" endpointlabel=TGI unitlabel=µM readoutvalue=29.6
querysmiles=O=C1C=CC(=O)c2nc3c(cc21)CCC3 targetortestsystem="NCI-H23 lung" endpointlabel=TGI unitlabel=µM readoutvalue=64.6
querysmiles=O=C(Oc1ccc(Cl)cc1)c1ccccc1Nc1ccnc(C(F)(F)F)c1 targetortestsystem="NCI-H23 lung" endpointlabel=TGI unitlabel=µM readoutvalue=8.55

Turning now to a further record.
Short answer for Nc1n[nH]c2cccc(C#Cc3cccc(C(=O)Nc4ccc(CN5CCOCC5)c(C(F)(F)F)c4)c3)c12 : TGI was 11.3

* * *

test system: HCC-2998 colon; assay: NCI tumour cell line growth inhibition, 48 h
Entries and their TGI values follow.

Worked examples, 3 molecules total:
querysmiles=Cn1ccc2c3c(Oc4ccc(NC(N)=O)cc4)ccnc3ccc21 targetortestsystem="HCC-2998 colon" endpointlabel=TGI readoutvalue="> 100 µM"
querysmiles=Cc1ccc(-n2c3nc(=O)[nH]c(=O)c-3cc3cc([N+](=O)[O-])ccc32)cc1 targetortestsystem="HCC-2998 colon" endpointlabel=TGI readoutvalue="28.6 µM"
querysmiles=COC(=O)C1=C(C(=O)OC)SC(=C2SCSC3=C2SC(C(=O)OC)=C(C(=O)OC)C32SC3=C(CCCC3)S2)S1 targetortestsystem="HCC-2998 colon" endpointlabel=TGI readoutvalue="> 100 µM"

Turning now to a further record.
Form field, TGI with HCC-2998 colon, item COC[C@H]1Cn2cc(-c3nc(Nc4ccnn4C)ncc3C)nc2C(=O)N1Cc1ccc(F)c(F)c1 : > 100 µM
